This collection of values is drawn from paper PMC10279527.

target_system: OEP21 wt (Pisum sativum)
Construct: made in house
Sequence (Q9SM57 whole entry): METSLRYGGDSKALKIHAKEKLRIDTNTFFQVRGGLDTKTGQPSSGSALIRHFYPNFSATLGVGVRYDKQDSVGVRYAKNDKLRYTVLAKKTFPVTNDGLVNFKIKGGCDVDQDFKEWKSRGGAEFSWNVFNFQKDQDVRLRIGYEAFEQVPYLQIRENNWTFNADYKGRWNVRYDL
test_protocol: NMR titrations (2D-[15N,1H]-TROSY) of OEP21 with metabolites
Format: binding, garden pea
condition_label: affinity of residues in L5, NMR, Fig. 3h
pKd: −log10 of the molar value.
measurement_type: pKd

Please report the recorded pKd for O=C[C@H](O)COP(=O)(O)O [GAP, D-glyceraldehyde-3-phosphate] .
~2.52

###

target_system: OEP21 (Pisum sativum)
Sequence (Q9SM57 whole entry): as above
test_protocol: CD-detected thermal melting of OEP21 in presence of metabolites
Type: binding, garden pea
Parameters: made in house
condition_label: ED Fig. 4a; OEP21 with 0.5 mM metabolite; CD at 215 nm; Apo 58.5
Below is a list of entries, each paired with its recorded Melting point value.

Before answering, review these 5 worked examples.
compound	measurement_type	result
Nc1ncnc2c1ncn2[C@@H]1O[C@H](COP(=O)(O)O)[C@@H](O)[C@H]1O	Melting point	59.12 ｡C
Nc1ncnc2c1ncn2C1OC(COP(=O)(O)OP(=O)(O)OP(=O)(O)O)C(O)C1O (stereo not shown)	Melting point	63.08 ｡C
O=C[C@H](O)COP(=O)(O)O [GAP, D-glyceraldehyde-3-phosphate]	Melting point	59.2 ｡C
NC(=O)C1=CN([C@@H]2O[C@H](COP(=O)(O)OP(=O)(O)OC[C@H]3O[C@@H](n4cnc5c(N)ncnc54)[C@H](O)[C@@H]3O)[C@@H](O)[C@H]2O)C=CC1	Melting point	58.83 ｡C
C=C(OP(=O)(O)O)C(=O)O	Melting point	58.37 ｡C

Please report the recorded Melting point for "O=c1ccn([C@@H]2O[C@H](COP(=O)(O)OP(=O)(O)OP(=O)(O)O)[C@@H](O)[C@H]2O)c(=O)[nH]1" .
63.58 ｡C

Ok, now "NC(=O)C1=CN([C@@H]2O[C@H](COP(=O)(O)OP(=O)(O)OC[C@H]3O[C@@H](n4cnc5c(N)ncnc54)[C@H](OP(=O)(O)O)[C@@H]3O)[C@@H](O)[C@H]2O)C=CC1"
60.17 ｡C
